- study-target: Protein cereblon/Cyclic GMP-AMP synthase (Homo sapiens, UniProt Q96SW2+Q8N884)
- Sequence (Q8N884 whole entry, looked up): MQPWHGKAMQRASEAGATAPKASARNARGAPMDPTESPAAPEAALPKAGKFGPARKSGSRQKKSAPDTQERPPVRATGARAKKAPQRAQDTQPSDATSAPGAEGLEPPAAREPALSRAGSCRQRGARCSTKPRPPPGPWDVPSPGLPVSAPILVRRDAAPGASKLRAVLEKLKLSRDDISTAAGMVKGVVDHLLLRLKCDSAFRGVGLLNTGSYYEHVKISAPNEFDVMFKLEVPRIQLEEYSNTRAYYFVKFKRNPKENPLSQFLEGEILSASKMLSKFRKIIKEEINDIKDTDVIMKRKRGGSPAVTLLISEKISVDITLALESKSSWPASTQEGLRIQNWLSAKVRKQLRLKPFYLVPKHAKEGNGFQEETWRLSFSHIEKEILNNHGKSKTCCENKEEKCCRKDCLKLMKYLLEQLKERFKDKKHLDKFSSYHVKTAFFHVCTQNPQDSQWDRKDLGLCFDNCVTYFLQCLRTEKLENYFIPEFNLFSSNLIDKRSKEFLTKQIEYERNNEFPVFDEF
- Sequence (Q96SW2 whole entry, looked up): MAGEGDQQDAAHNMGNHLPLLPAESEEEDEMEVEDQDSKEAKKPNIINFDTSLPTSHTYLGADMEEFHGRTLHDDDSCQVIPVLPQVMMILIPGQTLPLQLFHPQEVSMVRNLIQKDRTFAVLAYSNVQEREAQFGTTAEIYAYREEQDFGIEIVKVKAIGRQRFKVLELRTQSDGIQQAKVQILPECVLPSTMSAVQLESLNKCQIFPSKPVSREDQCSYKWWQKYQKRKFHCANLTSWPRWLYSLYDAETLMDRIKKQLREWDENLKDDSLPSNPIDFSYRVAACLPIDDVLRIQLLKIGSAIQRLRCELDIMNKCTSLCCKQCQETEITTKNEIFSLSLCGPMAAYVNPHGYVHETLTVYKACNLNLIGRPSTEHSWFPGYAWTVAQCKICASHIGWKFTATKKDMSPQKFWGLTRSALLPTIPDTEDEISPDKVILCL
- test-summary: PROTAC activity at CRBN/cGAS in human THP-1 cells assessed as induction of cGAS degradation at 10 uM preincubated with compound for 40 hrs followed by HT-DNA stimulation and measured after 8 hrs by Western blot analysis relative to control
- Format: cell-based
- condition-notes: time 48.0 hrs
measured-endpoint: Activity (%)

Solved cases below.
// fetch Activity; item: Cn1ccc(-c2cc(Cl)c(Cl)c3[nH]c4c(c23)CN(C(=O)CNC(=O)CCCCCCCCCCNc2cccc3c2C(=O)N(C2CCC(=O)NC2=O)C3=O)CC4)n1 (configuration not stated) ; system: Protein cereblon/Cyclic GMP-AMP synthase (Homo sapiens, UniProt Q96SW2+Q8N884)
20.4

Report Activity from Protein cereblon/Cyclic GMP-AMP synthase (Homo sapiens, UniProt Q96SW2+Q8N884) testing of Cn1ccc(-c2cc(Cl)c(Cl)c3[nH]c4c(c23)CN(C(=O)CNC(=O)CCCCCCCNc2cccc3c2C(=O)N(C2CCC(=O)NC2=O)C3=O)CC4)n1 (configuration not stated)
34.2

A. Cn1ccc(-c2cc(Cl)c(Cl)c3[nH]c4c(c23)CN(C(=O)CNC(=O)CCCCCCCCCNc2cccc3c2C(=O)N(C2CCC(=O)NC2=O)C3=O)CC4)n1 (configuration not stated)
B. Cn1ccc(-c2cc(Cl)c(Cl)c3[nH]c4c(c23)CN(C(=O)CNC(=O)CCNc2cccc3c2C(=O)N(C2CCC(=O)NC2=O)C3=O)CC4)n1 (configuration not stated)
Could you determine which record has the numerically smaller Activity? Candidates: A and B Identify your pick by its label.
A

1. Cn1ccc(-c2cc(Cl)c(Cl)c3[nH]c4c(c23)CN(C(=O)CNC(=O)CCCCC#Cc2cccc3c2CN(C2CCC(=O)NC2=O)C3=O)CC4)n1 (configuration not stated)
2. O=C1CCC(N2C(=O)c3cccc(NCCOCCOCCOCCOCCOCCC(=O)N4CCC(Cn5cc(-c6cc(Cl)c(Cl)c7[nH]c8c(c67)CN(C(=O)CO)CC8)cn5)CC4)c3C2=O)C(=O)N1 (configuration not stated)
3. O=C1CCC(N2C(=O)c3cccc(NCCCCCCCCC(=O)N4CC(Cn5cc(-c6cc(Cl)c(Cl)c7[nH]c8c(c67)CN(C(=O)CO)CC8)cn5)C4)c3C2=O)C(=O)N1 (configuration not stated)
4. Cn1ccc(-c2cc(Cl)c(Cl)c3[nH]c4c(c23)CN(C(=O)CNC(=O)COCCNc2cccc3c2C(=O)N(C2CCC(=O)NC2=O)C3=O)CC4)n1 (configuration not stated)
Sort entries by Activity from minimum to maximum value. // list labels; follow requested order
2, 3, 4, 1
(2: 10.4%, 3: 21.2%, 4: 38.2%, 1: 57.7%)

* * *

- study-target: Protein cereblon/Cyclic GMP-AMP synthase (Homo sapiens, UniProt Q96SW2+Q8N884)
- test-summary: PROTAC activity at CRBN/cGAS in human THP-1 cells assessed as induction of cGAS degradation at 10 uM preincubated with compound for 40 hrs followed by HT-DNA stimulation and measured after 8 hrs by Western blot analysis relative to control
- Format: cell-based
- condition-notes: time 48.0 hrs
measured-endpoint: Activity (%)

Specify Activity for Cn1ccc(-c2cc(Cl)c(Cl)c3[nH]c4c(c23)CN(C(=O)CNC(=O)CCCNc2cccc3c2C(=O)N(C2CCC(=O)NC2=O)C3=O)CC4)n1 (stereo not drawn) and stop.
58.7

1. Cn1ccc(-c2cc(Cl)c(Cl)c3[nH]c4c(c23)CN(C(=O)CCCCCCC#Cc2cccc3c2CN(C2CCC(=O)NC2=O)C3=O)CC4)n1 (stereo not drawn)
2. O=C1CCC(N2C(=O)c3cccc(NCCCCC(=O)N4CCC(Cn5cc(-c6cc(Cl)c(Cl)c7[nH]c8c(c67)CN(C(=O)CO)CC8)cn5)CC4)c3C2=O)C(=O)N1 (stereo not drawn)
Given 1 and 2 , report the one with the higher recorded Activity. Could you answer with the label of the item you picked?
1

* * *

- test-summary: Volume of distribution in male C57BL/6 mouse at 1 mg/kg, iv measured after 24 hrs by LC-MS/MS analysis
- Assay type: ADME, organism-based
- condition-notes: in vivo
measured-endpoint: Vd (L/kg)
Please give a number only; it is taken to be in L/kg.

State, in one line, measured Vd of Cn1ccc(-c2cc(Cl)c(Cl)c3[nH]c4c(c23)CN(C(=O)CNC(=O)CCCC#Cc2cccc3c2CN(C2CCC(=O)NC2=O)C3=O)CC4)n1 (stereo unspecified)
8.1

* * *

- test-summary: Inhibition of dsDNA-induced cGAS signaling pathway in mouse RAW-Lucia ISG cells preincubated with compound for 24 hrs followed by HT-DNA addition and measured after 24 hrs by QUANTI-Luc luciferase reagent based assay
- Format: cell-based
pIC50: −log10 of the molar value.
Property: pIC50; scope: individual molecules

Below, each entry is followed by its recorded pIC50 result.
Give pIC50 for Cn1ccc(-c2cc(Cl)c(Cl)c3[nH]c4c(c23)CN(C(=O)CNC(=O)CCCCC#Cc2cccc3c2C(=O)N(C2CCC(=O)NC2=O)C3=O)CC4)n1 (stereo unspecified)
< 4.30

Supply reported pIC50 belonging to this molecule: O=C1CCC(N2C(=O)c3cccc(NCCCCC(=O)N4CCC(Cn5cc(-c6cc(Cl)c(Cl)c7[nH]c8c(c67)CN(C(=O)CO)CC8)cn5)CC4)c3C2=O)C(=O)N1 (stereo unspecified)
< 4.30

More entries:
Tell me its pIC50 given O=C1CCC(N2C(=O)c3cccc(NCCCCCCCC(=O)N4CCC(Cn5cc(-c6cc(Cl)c(Cl)c7[nH]c8c(c67)CN(C(=O)CO)CC8)cn5)CC4)c3C2=O)C(=O)N1 (stereo unspecified) as the entry.
< 4.30

Find the measured pIC50 of Cn1ccc(-c2cc(Cl)c(Cl)c3[nH]c4c(c23)CN(C(=O)CO)CC4)n1 and report it.
4.88

Identify measured pIC50 associated with O=C1CCC(N2C(=O)c3cccc(NCCCC(=O)N4CCC(Cn5cc(-c6cc(Cl)c(Cl)c7[nH]c8c(c67)CN(C(=O)CO)CC8)cn5)CC4)c3C2=O)C(=O)N1 (stereo unspecified)
< 4.30

Return pIC50 (reported value) for this molecule: Cn1ccc(-c2cc(Cl)c(Cl)c3[nH]c4c(c23)CN(C(=O)CNC(=O)COCCOCCOCCNc2cccc3c2C(=O)N(C2CCC(=O)NC2=O)C3=O)CC4)n1 (stereo unspecified)
< 4.30

* * *

- test-summary: Inhibition of dsDNA-induced cGAS signaling pathway in mouse RAW-Lucia ISG cells preincubated with compound for 24 hrs followed by HT-DNA addition and measured after 24 hrs by QUANTI-Luc luciferase reagent based assay
- Assay type: cell-based
pIC50: −log10 of the molar value.
measured-endpoint: pIC50

The following compounds have reported results that may help.
Name the recorded pIC50 of the item Cn1ccc(-c2cc(Cl)c(Cl)c3[nH]c4c(c23)CN(C(=O)CNC(=O)CCCCCCNc2cccc3c2C(=O)N(C2CCC(=O)NC2=O)C3=O)CC4)n1 (configuration not stated) in your answer.
4.55

# return recorded pIC50 for entry O=C1CCC(N2C(=O)c3cccc(NCCCCCC(=O)N4CCC(Cn5cc(-c6cc(Cl)c(Cl)c7[nH]c8c(c67)CN(C(=O)CO)CC8)cn5)CC4)c3C2=O)C(=O)N1 (configuration not stated)
4.40

I. Cn1ccc(-c2cc(Cl)c(Cl)c3[nH]c4c(c23)CN(C(=O)CCCC#Cc2cccc3c2CN(C2CCC(=O)NC2=O)C3=O)CC4)n1 (configuration not stated)
II. Cn1ccc(-c2cc(Cl)c(Cl)c3[nH]c4c(c23)CN(C(=O)CNC(=O)CCCCC#Cc2cccc3c2CN(C2CCC(=O)NC2=O)C3=O)CC4)n1 (configuration not stated)
III. Cn1ccc(-c2cc(Cl)c(Cl)c3[nH]c4c(c23)CN(C(=O)CNC(=O)CCCC#Cc2cccc3c2CN(C2CCC(=O)NC2=O)C3=O)CC4)n1 (configuration not stated)
hey, can you rank those compounds up there by pIC50? biggest number first please # format: label list in the order the request specifies
III, II, I
(III: 5.32, II: 4.82, I: 4.45)

* * *

- study-target: Protein cereblon/Cyclic GMP-AMP synthase (Homo sapiens, UniProt Q96SW2+Q8N884)
- test-summary: PROTAC activity at CRBN/cGAS in human THP-1 cells assessed as induction of cGAS degradation at 10 uM preincubated with compound for 40 hrs followed by HT-DNA stimulation and measured after 8 hrs by Western blot analysis relative to control
- Format: cell-based
- condition-notes: time 48.0 hrs
measured-endpoint: Activity (%)

// Input: Cn1ccc(-c2cc(Cl)c(Cl)c3[nH]c4c(c23)CN(C(=O)CCCCC#Cc2cccc3c2CN(C2CCC(=O)NC2=O)C3=O)CC4)n1 (stereo not drawn) . Output its Activity only.
45.1

Give the reported value of Activity for this record: Cn1ccc(-c2cc(Cl)c(Cl)c3[nH]c4c(c23)CN(C(=O)CNC(=O)CCCC#Cc2cccc3c2CN(C2CCC(=O)NC2=O)C3=O)CC4)n1 (stereo not drawn)
78.9

State, in one line, measured Activity of Cn1ccc(-c2cc(Cl)c(Cl)c3[nH]c4c(c23)CN(C(=O)CNC(=O)CCCCC#Cc2cccc3c2C(=O)N(C2CCC(=O)NC2=O)C3=O)CC4)n1 (stereo not drawn)
48.5

Please give the documented Activity of Cn1ccc(-c2cc(Cl)c(Cl)c3[nH]c4c(c23)CN(C(=O)CNC(=O)COCCOCCNc2cccc3c2C(=O)N(C2CCC(=O)NC2=O)C3=O)CC4)n1 (stereo not drawn)
46.8

P. Cn1ccc(-c2cc(Cl)c(Cl)c3[nH]c4c(c23)CN(C(=O)CNC(=O)CCOCCOCCOCCOCCNc2cccc3c2C(=O)N(C2CCC(=O)NC2=O)C3=O)CC4)n1 (stereo not drawn)
Q. Cn1ccc(-c2cc(Cl)c(Cl)c3[nH]c4c(c23)CN(C(=O)CCCC#Cc2cccc3c2CN(C2CCC(=O)NC2=O)C3=O)CC4)n1 (stereo not drawn)
Could you point out whether the larger Activity belongs to P or to Q ? Give the label under which the chosen entry appears.
Q
(Q: 40.4%, P: 20.5%)

I. Cn1ccc(-c2cc(Cl)c(Cl)c3[nH]c4c(c23)CN(C(=O)CNC(=O)CC2CCN(C(=O)COc3cccc5c3C(=O)N(C3CCC(=O)NC3=O)C5=O)CC2)CC4)n1 (stereo not drawn)
II. Cn1ccc(-c2cc(Cl)c(Cl)c3[nH]c4c(c23)CN(C(=O)CNC(=O)CCCCCC#Cc2cccc3c2C(=O)N(C2CCC(=O)NC2=O)C3=O)CC4)n1 (stereo not drawn)
Hi there, can you help? I need to know whether I or II has lower measured Activity. // output: label of the selected item
I
